READOUT_LABEL: melting point (°C)
Respond with the bare value in °C.

INSERT INTO assay_data (molecule, readout_label, quantitative_readout) VALUES
  ('CC12CCC(C(O)=C/C1=N\Nc1ccccc1)C2(C)C (stereo not drawn)', 'melting point', 182);

I'd like to know its melting point. The molecule in question is O=c1cc(-c2ccccc2)[nH]o1
152

Could you tell me which melting point is on file for Nc1ccccc1F ?
-34.6

Fill in the blank: the reported melting point of O=[N+]([O-])c1ccc(Cl)c(Cl)c1Cl is ____.
55.5

Tell me the measured melting point of c1ccc2c(c1)ccc1c3ccccc3ccc21 , please.
255

melting point lookup needed for O=[N+]([O-])c1ccccc1O [o-nitrophenol] , thanks.
45

Which melting point is reported for this molecule? C1CCC2OCCOCCOC3CCCCC3OCCOCCOC2C1 (stereo not drawn)
50

Item under review: NC(Cc1ccc(N(CCCl)CCCl)cc1)C(=O)O (stereo not drawn) . Reported melting point?
182

Which melting point is listed for C#CC1(O)CC[C@H]2[C@@H]3CCc4cc(O)ccc4[C@H]3CC[C@@]21C (stereo in doubt) ?
144

I'd like to know its melting point. The molecule in question is O=c1cc(C(F)(F)F)c2ccc(O)cc2o1 [7-hydroxy-4-(trifluoromethyl)coumarin]
179

If you can, please state the reported melting point value of COc1ccccc1N1CCN(CCCNc2cc(=O)n(C)c(=O)n2C)CC1 .
156

Fill blank: measured melting point of the molecule O=C(O)/C=C/c1ccc(C(F)(F)F)cc1 [trans-4-(trifluoromethyl)cinnamic acid] is ____.
232

Suppose we examine the molecule COc1ccc(Nc2ccc(OC)cc2)cc1 ; what melting point value has been reported?
102

Find the recorded melting point belonging to Nc1ccc2c(c1)OCCCO2 [3,4-dihydro-2h-1,5-benzodioxepin-7-amine] and report it.
79

Requested field: melting point. Item: Oc1c(F)c(F)cc(F)c1F
29

What does the data say about its melting point? Entry: CCCCCCCCCCCCS(=O)(=O)Cl [1-dodecanesulfonyl chloride]
41
